The entries below are paired with their reported T/C.
System: L1210 leukemia ip in BDF1 mice, survival T/C
Test: NCI In Vivo Anticancer Drug Screen. Data for tumor model L1210 Leukemia (intraperitoneal) in B6D2F1 (BDF1) mice
Details: endpoint: mean survival time; dose: 25.0 mg/kg/injection; schedule: Q01DX009 (ip); vehicle: Klucel (hydroxypropylcellulose) (HPC); higher = longer survival
Toxic doses and inconclusive results are not listed.

Bench note: what T/C did "CCOC(=O)c1c[nH]c2nc(SC)[nH]c(=O)c2c1=O" show?
86 % of control

Request the reported T/C associated with CC1(C)C(OC=O)C(C)(C)C1OC=O (stereo not given)
100 % of control

Could you share which T/C value was measured for CCN(CC)CCCC(C)Nc1ccnc(/C=C/c2ccc(Br)cc2)c1 (stereo not given) ?
98 % of control

Given the molecule O=C1C=CC(=O)C2C3C=CC(C3)C12 (stereo not given) , what is its reported T/C?
102 % of control

What value of T/C has been reported for the following molecule? "O=[N+]([O-])c1ccc(N2CCC(CCCC3CCN(c4ccc([N+](=O)[O-])cc4[N+](=O)[O-])CC3)CC2)c([N+](=O)[O-])c1"
101 % of control

Entry "O=C(COc1ccc(Cl)cc1)Nc1cccnc1" : reported T/C = ?
100 % of control

Record request: T/C value, item CC1(C2C3OC(=O)C2C2(O)CC4OC45C(=O)OC3C25C)CO1 (stereo not given)
92 % of control

Query (molecule): "COc1cc(Br)c(CCBr)cc1OC" ; field requested: T/C
98 % of control

Tell me the measured T/C of "Cc1ccc(NC(=O)N(CCCCl)N=O)cc1" , please.
103 % of control

Which measured T/C value corresponds to "S=c1[nH]c2ccc(Cl)cc2s1" ?
101 % of control
